Biological target: EGFR wildtype (WT) (Homo sapiens)
Assay: Biochemical EGFR kinase inhibition assay (Lance Ultra TR-FRET), wildtype
Conditions: IC50 WT (nM), 100 μM ATP
Catalogue of IC50 values
Measured Metric: IC50

1. CC1(CO)CCN(c2cc(Nc3ccnc(-c4cnn(S(C)(=O)=O)c4)n3)ncc2C#Cc2cnn(C(F)(F)F)c2)CC1; > 10000 nM
2. CN1CCC(n2cc(C#Cc3cnc(Nc4ccnc(-c5cnn(S(=O)(=O)C6CC6)c5)n4)cc3N3CCC(C)(CO)CC3)cn2)CC1; 43.3 nM
3. CN(C)C(C)(C)CNC1CCN(c2cc(Nc3ccnc(-c4cnn(S(=O)(=O)C5CC5)c4)n3)ncc2C#Cc2cnn(C)c2)CC1; > 10000 nM

* * *

Target: EGFR wildtype (WT) (Homo sapiens, UniProt P00533)
Sequence (P00533 25-1210): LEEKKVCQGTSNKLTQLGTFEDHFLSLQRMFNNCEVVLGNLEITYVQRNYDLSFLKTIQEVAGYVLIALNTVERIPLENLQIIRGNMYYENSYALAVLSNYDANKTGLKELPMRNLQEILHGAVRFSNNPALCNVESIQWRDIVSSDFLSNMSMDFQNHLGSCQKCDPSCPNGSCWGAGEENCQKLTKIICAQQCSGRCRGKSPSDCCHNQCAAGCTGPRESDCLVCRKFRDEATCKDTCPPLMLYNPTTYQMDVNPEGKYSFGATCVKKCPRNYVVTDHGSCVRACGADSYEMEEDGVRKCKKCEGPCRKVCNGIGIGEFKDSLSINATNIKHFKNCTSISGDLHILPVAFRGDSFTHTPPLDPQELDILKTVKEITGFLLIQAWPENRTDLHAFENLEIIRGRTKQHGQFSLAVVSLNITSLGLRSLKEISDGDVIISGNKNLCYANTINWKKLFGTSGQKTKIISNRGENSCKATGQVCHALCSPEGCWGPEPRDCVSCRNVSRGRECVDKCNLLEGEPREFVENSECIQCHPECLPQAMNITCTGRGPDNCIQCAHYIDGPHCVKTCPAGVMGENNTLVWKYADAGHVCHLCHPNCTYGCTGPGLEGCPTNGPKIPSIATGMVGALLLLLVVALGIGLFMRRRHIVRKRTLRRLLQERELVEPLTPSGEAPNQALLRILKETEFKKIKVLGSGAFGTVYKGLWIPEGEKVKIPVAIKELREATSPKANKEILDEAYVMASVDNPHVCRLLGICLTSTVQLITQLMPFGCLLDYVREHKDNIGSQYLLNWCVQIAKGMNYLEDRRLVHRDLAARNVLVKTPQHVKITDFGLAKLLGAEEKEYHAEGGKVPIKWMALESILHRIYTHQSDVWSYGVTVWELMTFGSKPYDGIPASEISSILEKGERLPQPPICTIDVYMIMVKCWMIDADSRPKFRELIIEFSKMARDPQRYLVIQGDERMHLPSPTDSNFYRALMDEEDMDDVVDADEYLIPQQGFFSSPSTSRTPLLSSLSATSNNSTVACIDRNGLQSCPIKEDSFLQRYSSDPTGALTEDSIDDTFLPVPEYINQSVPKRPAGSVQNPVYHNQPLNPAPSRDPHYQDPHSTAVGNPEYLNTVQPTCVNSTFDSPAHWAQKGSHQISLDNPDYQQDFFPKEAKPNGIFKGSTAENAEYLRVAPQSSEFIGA
Assay: Biochemical EGFR kinase inhibition assay (Lance Ultra TR-FRET), wildtype
Settings: IC50 WT (nM), 100 μM ATP
Measured Metric: IC50

1. CNC1CCN(c2cc(Nc3ccnc(-c4cnn(S(=O)(=O)C5CC5)c4)n3)ncc2C#Cc2cnn(C)c2)CC1; > 10000 nM
2. O=S(=O)(C1CC1)n1cc(-c2nccc(Nc3cc(N[C@@H]4CCC[C@H](O)C4)c(C#Cc4ccc(CN5CCOCC5)cc4)cn3)n2)cn1; > 10000 nM
3. O=S(=O)(C1CC1)n1cc(-c2nccc(Nc3cc(N[C@H]4CC[C@@H](O)CC4)c(C#Cc4cnn(CC(F)(F)F)c4)cn3)n2)cn1; > 10000 nM
4. CC(C)(C#Cc1cnc(Nc2ccnc(-c3cnn(S(=O)(=O)C4CC4)c3)n2)cc1N[C@H]1CC[C@@H](O)CC1)N1CCOCC1; > 10000 nM
5. Nc1cccc(C#Cc2cnc(Nc3ccnc(-c4cnn(S(=O)(=O)C5CC5)c4)n3)cc2N[C@@H]2CCC[C@H](O)C2)c1; > 10000 nM
6. CC1(O)CCN(c2cc(Nc3ccnc(-c4cnn(S(=O)(=O)C5CC5)c4)n3)ncc2C#CC2(F)CCOC2)CC1 (stereo not drawn); 8720 nM

* * *

This section presents compounds with their documented log10 of IC50 values.
Biological target: EGFR L858R/T790M/C797S (Homo sapiens, UniProt P00533, C797S/L858R/T790M)
Sequence (P00533 25-1210 T790M/C797S/L858R): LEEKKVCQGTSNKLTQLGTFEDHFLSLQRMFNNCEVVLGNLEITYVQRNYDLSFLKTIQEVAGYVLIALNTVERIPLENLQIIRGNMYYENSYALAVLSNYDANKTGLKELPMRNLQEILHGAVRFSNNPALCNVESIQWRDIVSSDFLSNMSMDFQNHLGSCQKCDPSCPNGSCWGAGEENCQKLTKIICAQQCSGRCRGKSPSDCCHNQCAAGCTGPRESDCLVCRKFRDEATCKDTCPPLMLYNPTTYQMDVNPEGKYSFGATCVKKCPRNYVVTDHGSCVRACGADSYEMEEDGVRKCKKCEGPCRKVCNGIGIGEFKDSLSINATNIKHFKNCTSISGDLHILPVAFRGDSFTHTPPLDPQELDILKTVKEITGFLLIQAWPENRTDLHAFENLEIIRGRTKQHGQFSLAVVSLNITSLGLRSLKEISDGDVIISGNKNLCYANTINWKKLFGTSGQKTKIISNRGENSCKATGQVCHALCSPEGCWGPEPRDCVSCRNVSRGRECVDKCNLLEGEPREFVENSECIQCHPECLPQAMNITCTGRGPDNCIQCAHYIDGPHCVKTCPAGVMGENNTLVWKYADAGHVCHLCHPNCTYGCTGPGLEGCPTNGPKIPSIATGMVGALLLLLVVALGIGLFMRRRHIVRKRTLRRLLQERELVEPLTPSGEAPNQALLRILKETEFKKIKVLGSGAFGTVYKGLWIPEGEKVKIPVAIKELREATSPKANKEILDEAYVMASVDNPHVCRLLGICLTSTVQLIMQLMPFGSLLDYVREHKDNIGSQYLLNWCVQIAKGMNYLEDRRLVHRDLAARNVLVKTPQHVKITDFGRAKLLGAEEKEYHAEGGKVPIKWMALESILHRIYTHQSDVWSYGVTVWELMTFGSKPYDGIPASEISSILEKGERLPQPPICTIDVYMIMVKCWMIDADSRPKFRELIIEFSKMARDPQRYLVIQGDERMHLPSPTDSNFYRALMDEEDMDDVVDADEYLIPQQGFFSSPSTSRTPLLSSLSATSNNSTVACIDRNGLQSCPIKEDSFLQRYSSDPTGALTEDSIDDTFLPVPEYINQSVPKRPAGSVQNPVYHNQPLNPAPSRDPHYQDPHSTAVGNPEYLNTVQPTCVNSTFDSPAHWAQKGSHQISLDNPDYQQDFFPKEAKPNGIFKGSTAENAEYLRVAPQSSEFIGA
Test: Biochemical EGFR kinase inhibition assay (Lance Ultra TR-FRET), triple mutant L858R/T790M/C797S
Settings: ATP at Km; read-out: IC50 L858R/T790M/C797S (nM), Km ATP
Measured Metric: log10 of IC50 (log10 of the value in nM)

1) CC(C)Nc1cc(Nc2ccnc(-c3cnn(S(=O)(=O)C4CC4)c3)n2)ncc1C#CCN1CCCC1; 0.15
2) CC1(CO)CCN(c2cc(Nc3ccnc(-c4cnn(S(=O)(=O)C5CC5)c4)n3)ncc2C#Cc2ccc(CN3CCOCC3)nc2)CC1; 0.08
3) CC1(CO)CCN(c2cc(Nc3ccnc(-c4cnn(S(=O)(=O)C5CC5)c4)n3)ncc2C#C[Si](C)(C)C)CC1; 0.58
4) Cn1cc(C#Cc2cnc(Nc3ccnc(-c4cnn(S(=O)(=O)C5CC5)c4)n3)cc2N2CCC3(CCNC3)CC2)cn1; -1.40
5) CC1(CO)CCN(c2cc(Nc3ccnc(-c4cnn(S(=O)(=O)C5CC5)c4)n3)ncc2C#Cc2cn(CC(F)F)c3ccncc23)CC1; 0.04
6) CC1(C#Cc2cnc(Nc3ccnc(-c4cnn(S(=O)(=O)C5CC5)c4)n3)cc2N2CCC(C)(CO)CC2)CCOCC1; -0.05
7) CN(C)CC1(C)CCN(c2cc(Nc3ccnc(-c4cnn(S(=O)(=O)C5CC5)c4)n3)ncc2C#Cc2cnn(C3CC3)c2)CC1; -1.00
